# System name: HiBit-WIZ fusion protein (Homo sapiens, UniProt O95785+Q96SW2)
# Sequence (O95785 whole entry, the tested form may be a part): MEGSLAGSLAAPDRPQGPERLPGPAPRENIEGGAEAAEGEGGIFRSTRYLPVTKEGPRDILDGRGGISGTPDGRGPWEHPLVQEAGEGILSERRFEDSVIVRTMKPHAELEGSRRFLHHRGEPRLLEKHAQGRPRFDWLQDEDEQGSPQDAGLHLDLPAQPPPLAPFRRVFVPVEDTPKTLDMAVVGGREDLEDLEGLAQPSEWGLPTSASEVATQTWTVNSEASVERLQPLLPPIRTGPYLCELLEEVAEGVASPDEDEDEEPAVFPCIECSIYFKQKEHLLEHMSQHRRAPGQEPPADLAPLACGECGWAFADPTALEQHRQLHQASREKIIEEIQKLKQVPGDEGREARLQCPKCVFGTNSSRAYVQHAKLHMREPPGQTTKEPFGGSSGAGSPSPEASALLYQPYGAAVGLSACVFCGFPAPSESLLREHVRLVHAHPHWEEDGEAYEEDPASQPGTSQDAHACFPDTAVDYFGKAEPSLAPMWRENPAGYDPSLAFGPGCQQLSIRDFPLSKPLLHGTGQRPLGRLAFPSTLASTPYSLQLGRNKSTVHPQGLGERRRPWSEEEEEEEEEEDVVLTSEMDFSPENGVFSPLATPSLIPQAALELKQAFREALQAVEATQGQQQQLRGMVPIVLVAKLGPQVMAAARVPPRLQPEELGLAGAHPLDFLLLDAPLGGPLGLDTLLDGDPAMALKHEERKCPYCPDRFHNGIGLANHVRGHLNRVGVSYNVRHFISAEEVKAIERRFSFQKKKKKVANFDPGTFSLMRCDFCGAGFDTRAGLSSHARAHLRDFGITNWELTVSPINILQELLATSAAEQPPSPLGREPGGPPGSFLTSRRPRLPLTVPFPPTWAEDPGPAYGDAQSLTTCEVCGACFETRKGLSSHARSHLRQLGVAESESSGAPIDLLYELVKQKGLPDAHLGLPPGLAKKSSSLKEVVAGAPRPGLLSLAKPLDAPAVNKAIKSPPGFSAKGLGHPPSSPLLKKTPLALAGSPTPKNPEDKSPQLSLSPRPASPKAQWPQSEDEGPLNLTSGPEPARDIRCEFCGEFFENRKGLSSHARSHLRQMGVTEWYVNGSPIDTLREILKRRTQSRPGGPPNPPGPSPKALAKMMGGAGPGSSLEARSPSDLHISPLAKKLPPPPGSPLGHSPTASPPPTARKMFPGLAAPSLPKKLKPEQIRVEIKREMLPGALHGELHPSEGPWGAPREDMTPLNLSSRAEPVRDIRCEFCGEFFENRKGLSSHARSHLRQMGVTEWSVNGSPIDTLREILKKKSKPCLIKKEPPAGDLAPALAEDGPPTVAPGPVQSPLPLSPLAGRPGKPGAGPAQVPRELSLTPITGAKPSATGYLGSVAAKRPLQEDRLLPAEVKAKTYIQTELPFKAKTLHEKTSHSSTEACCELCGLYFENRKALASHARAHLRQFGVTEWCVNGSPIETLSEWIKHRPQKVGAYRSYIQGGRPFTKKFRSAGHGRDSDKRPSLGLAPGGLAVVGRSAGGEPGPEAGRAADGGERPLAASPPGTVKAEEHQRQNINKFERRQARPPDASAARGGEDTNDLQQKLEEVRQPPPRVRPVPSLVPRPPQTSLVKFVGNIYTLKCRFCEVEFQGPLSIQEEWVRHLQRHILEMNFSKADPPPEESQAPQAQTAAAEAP
# Sequence (Q96SW2 whole entry, the tested form may be a part): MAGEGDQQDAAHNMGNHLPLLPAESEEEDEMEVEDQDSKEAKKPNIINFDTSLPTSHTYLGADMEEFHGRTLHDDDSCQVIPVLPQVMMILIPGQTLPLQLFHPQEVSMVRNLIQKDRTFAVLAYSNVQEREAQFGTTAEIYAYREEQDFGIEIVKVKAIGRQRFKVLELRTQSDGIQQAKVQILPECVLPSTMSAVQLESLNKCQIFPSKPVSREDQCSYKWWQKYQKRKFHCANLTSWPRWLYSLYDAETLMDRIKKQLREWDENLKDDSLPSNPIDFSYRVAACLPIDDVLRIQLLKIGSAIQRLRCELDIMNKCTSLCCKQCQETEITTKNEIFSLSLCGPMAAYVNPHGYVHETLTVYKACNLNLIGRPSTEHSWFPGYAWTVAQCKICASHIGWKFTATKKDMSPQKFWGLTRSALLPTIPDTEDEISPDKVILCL
# Sequence (Q16531 whole entry partner, the tested form may be a part): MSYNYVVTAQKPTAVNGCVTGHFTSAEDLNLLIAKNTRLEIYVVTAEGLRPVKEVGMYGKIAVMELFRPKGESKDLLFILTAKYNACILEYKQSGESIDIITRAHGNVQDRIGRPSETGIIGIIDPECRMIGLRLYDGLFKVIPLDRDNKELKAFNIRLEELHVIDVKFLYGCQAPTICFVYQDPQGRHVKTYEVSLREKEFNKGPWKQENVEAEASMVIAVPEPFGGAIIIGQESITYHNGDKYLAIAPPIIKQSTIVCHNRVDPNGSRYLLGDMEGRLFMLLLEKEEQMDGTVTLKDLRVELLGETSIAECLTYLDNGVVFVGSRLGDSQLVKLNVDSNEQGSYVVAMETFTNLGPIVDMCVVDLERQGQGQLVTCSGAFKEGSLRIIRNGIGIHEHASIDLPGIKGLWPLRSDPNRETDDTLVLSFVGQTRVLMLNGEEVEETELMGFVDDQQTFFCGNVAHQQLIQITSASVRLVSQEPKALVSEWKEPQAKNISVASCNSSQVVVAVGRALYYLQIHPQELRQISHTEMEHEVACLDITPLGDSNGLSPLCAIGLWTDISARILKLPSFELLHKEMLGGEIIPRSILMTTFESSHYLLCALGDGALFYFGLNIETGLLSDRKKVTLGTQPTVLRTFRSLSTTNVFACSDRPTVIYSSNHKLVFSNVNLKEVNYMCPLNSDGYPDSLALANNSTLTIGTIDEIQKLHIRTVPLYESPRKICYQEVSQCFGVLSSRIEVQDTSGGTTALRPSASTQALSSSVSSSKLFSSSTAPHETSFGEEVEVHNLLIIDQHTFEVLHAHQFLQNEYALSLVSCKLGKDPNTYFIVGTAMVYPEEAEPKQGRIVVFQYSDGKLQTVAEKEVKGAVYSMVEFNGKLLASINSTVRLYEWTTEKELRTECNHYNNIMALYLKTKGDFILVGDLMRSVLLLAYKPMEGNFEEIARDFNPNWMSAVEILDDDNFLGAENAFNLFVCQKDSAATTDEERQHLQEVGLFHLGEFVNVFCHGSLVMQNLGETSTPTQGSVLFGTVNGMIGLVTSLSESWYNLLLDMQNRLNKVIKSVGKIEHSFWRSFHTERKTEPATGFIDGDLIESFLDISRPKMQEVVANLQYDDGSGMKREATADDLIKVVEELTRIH
# Experimental protocol: Quantification of WIZ protein levels in HiBit tag fusion protein assay (WIZ HiBit assay in 293T cells)
# Format: cell-based
# Run parameters: WIZ HiBit assay in 293T cells; 10-point, 5-fold dose response, highest concentration 25 μM, about 18 hours; read-out: WIZ AC50
Reported property: DC50 (µM)
Give bare numbers, in µM.

CN1CCOc2cc(C(=O)N3CCCC[C@H]3COc3ccc4c(c3)CN(C3CCC(=O)NC3=O)C4=O)cnc21 (some centres unmarked) [Compound I-72ij]    2.77
O=C1CCC(N2Cc3cc(OC[C@H]4CCCCN4Cc4c[nH]cn4)ccc3C2=O)C(=O)N1 (some centres unmarked) [Compound I-50ds]    3.04
O=C1CCC(N2Cc3cc(OC[C@H]4CCCCN4Cc4ccc5ccccc5n4)ccc3C2=O)C(=O)N1 (some centres unmarked) [Compound I-152]    0.048

Give DC50 for all compounds that follow.
1. O=C1CCC(N2Cc3cc(OC[C@H]4CCCCN4Cc4ccc(N5CCN(Cc6ccccc6)CC5)cc4)ccc3C2=O)C(=O)N1 (some centres unmarked) [Compound I-50br]
2. CCN1CCc2cccc(CN3CCCC[C@@H]3COc3ccc4c(c3)CN(C3CCC(=O)NC3=O)C4=O)c21 (some centres unmarked) [Compound I-112]
3. O=C1CCC(N2Cc3cc(OC[C@H]4CCCCN4Cc4cccc5c4NC(=O)CO5)ccc3C2=O)C(=O)N1 (some centres unmarked) [Compound I-180]
4. O=C1CCC(N2Cc3cc(OC[C@@H]4CCCCN4C(=O)c4ccc(N5CCOCC5)cc4)ccc3C2=O)C(=O)N1 (some centres unmarked) [Compound I-72an]
5. CN(C)Cc1ncc(-c2ccc(Oc3cc(Cl)cnc3CN3CCCC[C@@H]3COc3ccc4c(c3)CN(C3CCC(=O)NC3=O)C4=O)cc2)n1C (some centres unmarked) [Compound I-50di]
6. CC1(c2ccc(C(=O)N3CCCC[C@H]3COc3ccc4c(c3)CN(C3CCC(=O)NC3=O)C4=O)cc2)COC1 (some centres unmarked) [Compound I-72gc]

[0.044, 0.059, 0.02, 13.8, 1.18, 10.1]

Give DC50 for all compounds that follow.
1. CCN1CCC(c2ccc(CN3CCCC[C@@H]3COc3ccc4c(c3)CN(C3CCC(=O)NC3=O)C4=O)cc2)CC1 (some centres unmarked) [Compound I-129]
2. O=C1CCC(N2Cc3cc(OC[C@@H]4CCCCN4Cc4cnn(C5CCCCC5)c4)ccc3C2=O)C(=O)N1 (some centres unmarked) [Compound I-50p]

1: 0.046; 2: 0.047

Data point: O=C1CCC(N2Cc3cc(OC[C@H]4CCCCN4Cc4ccc(F)cn4)ccc3C2=O)C(=O)N1 (some centres unmarked) [Compound I-115] ; DC50 = 0.17
